Cited source: ChEMBL document CHEMBL4689842

Population Healthy Nuclei (%) overview
- Test system: HEK-293T
- experimental.protocol: Multiplex assay against HEK293T
- Type: toxicity, cell-based
- details: human, 12 h, 1 µM, compound concentration 1 uM, replicate 1
Field: numeric (%). Do not append units.

INSERT INTO assay_data (molecule, quantitative_readout) VALUES
  ('CN(C)C(=O)/C(C#N)=C/c1ccc(-c2nc3cnc4[nH]ccc4c3n2C2CCCCC2)o1', 42),
  ('Cc1csc2c(N[C@@H](C)CN3CCN(S(=O)(=O)c4ccc(Cl)c(Cl)c4)CC3)ncnc12', 16);

Shift focus to the following entry.
// query Population Healthy Nuclei (%) value for entry CN1CCC[C@@H]1CCO[C@](C)(c1ccccc1)c1ccc(Cl)cc1.O=C(O)/C=C/C(=O)O [CLEMASTINE FUMARATE]
23

---

- Test system: U2OS
- experimental.protocol: Multiplex assay against U2OS
- Assay type: toxicity, cell-based
- details: human, 24 h, 1 µM, compound concentration 1 uM, replicate 2
Population Mitotic Cells (%) overview

Take a look at these entries with their results.
INSERT INTO results (compound, result) VALUES
  ('Nc1c(C(=O)NCc2ccc(C(=O)NCCCC3CCCCC3)cc2)cnn1-c1ccccc1', '75%'),
  ('Cc1csc2c(N[C@@H](C)CN3CCN(S(=O)(=O)c4ccc(Cl)c(Cl)c4)CC3)ncnc12', '40%'),
  ('CCN(CC)CCCCNc1ncc2cc(-c3cc(OC)cc(OC)c3)c(NC(=O)NC(C)(C)C)nc2n1', '28%');

// query Population Mitotic Cells (%) value for entry CN1CCCC(n2nc(Cc3ccc(Cl)cc3)c3ccccc3c2=O)CC1.Cl (centres undefined) [AZELASTINE HYDROCHLORIDE]
50%

---

Population Mitotic Cells (%) overview
- System: U2OS
- experimental.protocol: Multiplex assay against U2OS
- Assay type: toxicity, cell-based
- details: human, 48 h, 1 µM, compound concentration 1 uM, replicate 2
Field: numeric (%). Do not append units.

INSERT INTO assay_data (molecule, quantitative_readout) VALUES
  ('CN(C)C(=O)/C(C#N)=C/c1ccc(-c2nc3cnc4[nH]ccc4c3n2C2CCCCC2)o1', 70),
  ('Cc1[nH]c(/C=C2\C(=O)Nc3ccc(S(=O)(=O)N(C)c4cccc(Cl)c4)cc32)c(C)c1C(=O)N1CCN(C)CC1', 75),
  ('Cn1cc(-c2[nH]c3cc(NC(=O)[C@H](N)C4CCCCC4)cc4c3c2C=NNC4=O)cn1', 57);

Fill in the recorded Population Mitotic Cells (%) for this molecule, with U2OS as test system: Cc1csc2c(N[C@@H](C)CN3CCN(S(=O)(=O)c4ccc(Cl)c(Cl)c4)CC3)ncnc12
75

Fill in the recorded Population Mitotic Cells (%) for this molecule, with U2OS as test system: Cc1c(-c2ccc(O)cc2)n(Cc2ccc(OCCN3CCCCCC3)cc2)c2ccc(O)cc12
63

Fill in the recorded Population Mitotic Cells (%) for this molecule, with U2OS as test system: c1cn2cc(-c3ccc4cn[nH]c4c3)nc(Nc3ccc(N4CCOCC4)cc3)c2n1
62

Fill in the recorded Population Mitotic Cells (%) for this molecule, with U2OS as test system: CN1CCN(CCOc2cc(OC3CCOCC3)c3c(Nc4c(Cl)ccc5c4OCO5)ncnc3c2)CC1
61
